These data points were gathered from patent US5006511A.

Target: human plasma renin (Homo sapiens, UniProt P00797)
Construct: from tissue; host or cells: human plasma
Sequence (P00797 67-406): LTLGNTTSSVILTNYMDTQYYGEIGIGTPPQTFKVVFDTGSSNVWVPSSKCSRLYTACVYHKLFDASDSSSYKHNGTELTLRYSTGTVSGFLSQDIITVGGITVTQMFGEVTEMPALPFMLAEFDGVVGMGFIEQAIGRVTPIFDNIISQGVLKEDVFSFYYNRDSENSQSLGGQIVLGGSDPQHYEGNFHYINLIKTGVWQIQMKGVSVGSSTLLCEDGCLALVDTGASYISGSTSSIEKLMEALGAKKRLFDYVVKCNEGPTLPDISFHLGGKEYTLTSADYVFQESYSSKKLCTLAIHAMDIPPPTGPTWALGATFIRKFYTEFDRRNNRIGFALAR
Assay: In vitro inhibition of human plasma renin (Boger et al., J. Med. Chem. 1985, 28, 1779)
Assay type: biochemical
Conditions: human plasma renin assay
value.type: log10(IC50) (log10 of the value in nM)
Note: values are log10 of IC50 expressed in nM.

Exercise: Please report log10(IC50) for the following substance: Boc-Phe-His-(ACHP)-5(S)-Hydroxymethyl)-1-Methyl-2-Pyrrolidinone [Example 3I]
Key: 1.15

Further cases:
Exercise: Please report log10(IC50) for the following substance: Boc-Phe-His-(ACHP)-5(S)-Acetoxymethyl)-1-Methyl-2-Pyrrolidinone [Example 3J]
Key: 2.20

Exercise: Please report log10(IC50) for the following substance: Boc-Phe-His-(ACHP)-5(S)-Methoxymethyl-1-Methyl-2-Pyrrolidinone [Example 3D]
Key: 1.85

Exercise: Please report log10(IC50) for the following substance: Boc-Phe-His-(ACHP)-1-Methyl-2-Pyrrolidinone [Example 3A]
Key: 1.00

Exercise: Please report log10(IC50) for the following substance: Boc-Phe-His-(ACHP)-5(S)-Benzyloxymethyl-1-Methyl-2-Pyrrolidinone [Example 3C]
Key: 3.64
